Values compiled from the supplement of paper PMC10065799.

Molecular target: FGFR3 (UniProt P22607)
Sequence (P22607 whole entry, looked up): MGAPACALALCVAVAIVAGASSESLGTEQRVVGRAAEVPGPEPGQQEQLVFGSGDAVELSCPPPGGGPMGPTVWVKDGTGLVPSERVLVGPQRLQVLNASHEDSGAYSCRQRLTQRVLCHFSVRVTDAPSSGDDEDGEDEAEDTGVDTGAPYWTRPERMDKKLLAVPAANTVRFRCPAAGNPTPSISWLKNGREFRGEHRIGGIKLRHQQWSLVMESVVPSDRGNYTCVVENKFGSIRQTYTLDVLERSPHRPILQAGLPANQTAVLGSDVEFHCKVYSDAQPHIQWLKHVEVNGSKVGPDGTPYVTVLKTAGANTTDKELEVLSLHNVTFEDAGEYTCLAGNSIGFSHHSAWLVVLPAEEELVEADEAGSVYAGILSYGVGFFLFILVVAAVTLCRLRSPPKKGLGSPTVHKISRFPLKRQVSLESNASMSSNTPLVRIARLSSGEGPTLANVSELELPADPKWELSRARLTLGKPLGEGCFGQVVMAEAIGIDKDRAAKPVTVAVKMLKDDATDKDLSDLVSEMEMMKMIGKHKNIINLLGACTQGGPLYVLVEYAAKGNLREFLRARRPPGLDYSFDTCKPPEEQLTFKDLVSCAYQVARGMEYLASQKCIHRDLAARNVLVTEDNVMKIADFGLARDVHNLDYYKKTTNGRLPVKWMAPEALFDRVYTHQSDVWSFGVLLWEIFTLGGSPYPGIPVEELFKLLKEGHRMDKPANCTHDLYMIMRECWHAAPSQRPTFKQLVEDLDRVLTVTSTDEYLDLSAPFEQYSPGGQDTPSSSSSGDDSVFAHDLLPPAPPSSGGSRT
Experiment: phosphorylation enrichment, bacterial display (enrichment ratio); higher = better substrate or ligand; peptides without Tyr show the background
Please mark Condition met if the recorded phosphorylation enrichment is equal to or greater than 0.5, and Condition not met if it falls below.

Answered cases to consult:
> print(dat)
                    sequence.code   target.or.test.system    class.label
1    KFVVVYFREID [IL17RB_Y447_YF]  FGFR3 (UniProt P22607)  Condition met
2        FTNRNYDLDFD [MYC_Y12_YF]  FGFR3 (UniProt P22607)  Condition met
3  YSIDYYRVGGH [NTRK2_Y707_T704I]  FGFR3 (UniProt P22607)  Condition met

Query :: Quick check: does DPLLTHRFPPK [LMNA_Y481_Y481H] have phosphorylation enrichment greater than or equal to 0.5?
Result :: Condition not met

Query :: Quick check: does RGVTHYILQTF [SLC39A4_Y359] have phosphorylation enrichment greater than or equal to 0.5?
Result :: Condition met

Query :: Quick check: does TGNGYYFRVFS [MYBPC3_Y1136_I1131T] have phosphorylation enrichment greater than or equal to 0.5?
Result :: Condition met

Query :: Quick check: does CTTIHYSFMCN [TP53_Y234_N235S_YF] have phosphorylation enrichment greater than or equal to 0.5?
Result :: Condition met

Query :: Quick check: does YCVDCYKNFVA [FHL1_Y213] have phosphorylation enrichment greater than or equal to 0.5?
Result :: Condition met

Query :: Quick check: does SFSGEYGSGGG [ZG16_Y30_G32S_YF] have phosphorylation enrichment greater than or equal to 0.5?
Result :: Condition not met

Query :: Quick check: does RLRKYHLGKYL [KLB_Y906_Y906H] have phosphorylation enrichment greater than or equal to 0.5?
Result :: Condition not met

Query :: Quick check: does FARNSYVAGQY [G6PD_Y107] have phosphorylation enrichment greater than or equal to 0.5?
Result :: Condition not met

Query :: Quick check: does CTTIHYHYMCN [TP53_Y234_N235H] have phosphorylation enrichment greater than or equal to 0.5?
Result :: Condition met

----------
Target: c-Src SH2;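 also: peptide library displayed on the E. coli surface as eCPX fusions, selected cells deep-sequenced, score is each peptide's frequency after selection divided by its frequency in the input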
Test: SH2 binding enrichment of the phosphorylated peptide, bacterial display (enrichment ratio); higher = better substrate or ligand; peptides without Tyr show the background
Listing: SH2 binding enrichment of selected sequences
I'd appreciate a reply containing only the number, no unit.

Recorded results for 4 sequences are shown here.
> print(dat)
                     sequence.code              observable  value
1         ALMGLYHGQVL [HADHA_Y343]  SH2 binding enrichment  0.647
2  FADIAYNFRHA [PAH_Y166_G171A_YF]  SH2 binding enrichment  0.547
3         MRNDLYQTPLH [NFKB1_Y582]  SH2 binding enrichment  0.381
4    RLDGEYFTLQI [TP53_Y327_P322R]  SH2 binding enrichment  0.484

Query :: Lab note: need SH2 binding enrichment with c-Src SH2 for entry FTNRNYDLDYD [MYC_Y12] , please look it up.
Result :: 3.05

Query :: Lab note: need SH2 binding enrichment with c-Src SH2 for entry HIAKGYRRDNP [HARS1_Y156_V155G] , please look it up.
Result :: 0.213

Query :: Lab note: need SH2 binding enrichment with c-Src SH2 for entry SLTGAYASGIP [POM121C_Y378_T379A] , please look it up.
Result :: 0.533

Query :: Lab note: need SH2 binding enrichment with c-Src SH2 for entry VLVSQYEKLDA [AMZ2_Y26_N30D] , please look it up.
Result :: 7.26
